- experimental-target: muscarinic receptors (rat cerebral cortex)
- Type: binding, Hooded Lister rats
- protocol-conditions: displacement of 0.27 nM 3H-QNB, rat cerebral cortex membranes, 50 mM tris pH 7.7, 37° C., 30 min
Counter-ions that a name gives are not always drawn.
// reported IC50 for each item listed
property: IC50

[[record]]
compound = "Nc1noc(C23CCCN(CC2)C3)n1 (racemic) [Example E2]"
test_value = "2000 nM"

[[record]]
compound = "FCc1noc(C23CCCN(CC2)C3)n1 (racemic) [Example E1, oxalate salt]"
test_value = "900 nM"

[[record]]
compound = "Nc1noc(C23CCN(CC2)C3)n1"
test_value = "2250 nM"

[[record]]
compound = "FCc1noc(C23CCN(CC2)C3)n1 [Example E5, oxalate salt]"
test_value = "19500 nM"

